Tested On: human AR (Homo sapiens, UniProt P10275)
Sequence (P10275 whole entry): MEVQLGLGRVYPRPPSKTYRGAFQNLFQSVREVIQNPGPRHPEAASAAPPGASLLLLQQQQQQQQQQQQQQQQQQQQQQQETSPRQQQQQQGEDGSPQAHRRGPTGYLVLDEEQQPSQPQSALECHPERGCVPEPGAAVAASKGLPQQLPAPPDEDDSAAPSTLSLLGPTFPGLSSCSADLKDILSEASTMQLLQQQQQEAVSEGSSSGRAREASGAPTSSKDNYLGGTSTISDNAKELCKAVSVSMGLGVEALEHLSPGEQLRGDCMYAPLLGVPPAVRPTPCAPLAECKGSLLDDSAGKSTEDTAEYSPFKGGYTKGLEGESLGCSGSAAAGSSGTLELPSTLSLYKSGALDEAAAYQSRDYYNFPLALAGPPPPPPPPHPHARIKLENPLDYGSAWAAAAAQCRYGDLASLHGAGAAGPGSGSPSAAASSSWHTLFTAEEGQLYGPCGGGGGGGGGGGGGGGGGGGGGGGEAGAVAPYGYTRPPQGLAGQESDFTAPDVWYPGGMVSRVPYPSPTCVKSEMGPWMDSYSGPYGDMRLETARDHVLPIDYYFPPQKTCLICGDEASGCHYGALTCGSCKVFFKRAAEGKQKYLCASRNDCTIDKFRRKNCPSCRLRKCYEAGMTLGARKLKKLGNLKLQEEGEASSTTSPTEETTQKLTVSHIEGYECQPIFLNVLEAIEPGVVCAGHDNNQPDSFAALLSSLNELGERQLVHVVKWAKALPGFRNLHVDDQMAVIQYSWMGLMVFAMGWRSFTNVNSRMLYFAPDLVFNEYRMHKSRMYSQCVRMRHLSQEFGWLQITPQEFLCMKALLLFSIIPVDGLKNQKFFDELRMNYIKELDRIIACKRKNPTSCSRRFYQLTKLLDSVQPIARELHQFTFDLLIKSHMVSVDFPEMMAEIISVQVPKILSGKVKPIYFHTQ
Sequence (P10275 whole entry): as above
Protocol Summary: AR2 assay, antagonist mode: disruption of R1881 (10 nM)-induced AR homodimerization in HepG2-AR2 cells
Assay type: cell-based
Recorded hill_tp (Hill model top) values for a group of compounds are listed next.
In your answer, state the number alone without any accompanying words.

Below, 4 compounds whose answers are already recorded.
[
  {
    "Compound": "CCCN(CCC)c1c([N+](=O)[O-])cc(C(F)(F)F)cc1[N+](=O)[O-] [Trifluralin]",
    "hill_tp (Hill model top)": 55.7657
  },
  {
    "Compound": "COC(=O)Nc1nc2ccccc2[nH]1 [Carbendazim]",
    "hill_tp (Hill model top)": 18.0536
  },
  {
    "Compound": "C[C@]12C=CC3=C4CCC(=O)C=C4CC[C@H]3[C@@H]1CC[C@@H]2O [17beta-Trenbolone]",
    "hill_tp (Hill model top)": 20.2687
  },
  {
    "Compound": "O=c1c(-c2ccc(O)cc2)coc2cc(O)cc(O)c12 [Genistein]",
    "hill_tp (Hill model top)": 100.659
  }
]

Here is another compound to look at.
In: Can you look up the measured hill_tp (Hill model top) of O=C1C[C@@H](c2ccc(O)cc2)Oc2cc(O)cc(O)c21 [Naringenin] for me?
Out: 38.8754
